Cited source: paper PMC3737555

- SYSTEM NAME: CELF1 RRM123 (Xenopus, UniProt O57406 1-214+385-489, internal_change)
- Sequence (O57406 other isoform, or with tags, fused parts or gaps): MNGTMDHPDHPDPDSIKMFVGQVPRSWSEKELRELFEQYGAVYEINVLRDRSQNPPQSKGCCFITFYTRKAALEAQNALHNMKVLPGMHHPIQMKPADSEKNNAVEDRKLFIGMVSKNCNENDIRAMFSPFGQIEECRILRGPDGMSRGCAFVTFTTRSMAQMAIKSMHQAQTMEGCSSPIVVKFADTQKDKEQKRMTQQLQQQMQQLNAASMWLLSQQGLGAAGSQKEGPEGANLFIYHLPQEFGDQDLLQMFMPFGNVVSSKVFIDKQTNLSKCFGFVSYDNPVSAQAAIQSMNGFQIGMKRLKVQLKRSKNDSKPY
- ASSAY REMARKS: ITC; n=1.45; ITC: 25 mM potassium phosphate, 100 mM NaCl, pH 7.0, 25 C, 12.5 uM protein, 125 uM RNA in syringe; NMR: same buffer, 298 K, ~200-250 uM protein
- ASSAY SETUP: protein: recombinant; tags: N-terminal His; single strand
ENDPOINT NAME: pKd
Lab note — pKd values are minus log10 of concentrations in M.

Could you please provide reported pKd for UGUUUGUUUGU (ssRNA) [EDEN11 (GRE)] ? Thanks!
5.66
